system: Chenopodium album (CHEAL), common lambsquarters; experiment: Postemergence herbicide evaluation, growth of Chenopodium album (CHEAL); assay type: in vivo; settings: Chenopodium album, post-emergence, 168 h, 560 g ae/ha, 7 DAA, percent reduction in plant size vs untreated control; read-out: Ave. CHEAL
# pest or weed control at 560 g/ha per entry
measure: pest or weed control at 560 g/ha (%)

[
  {
    "compound": "CONC(=O)COc1ccc(Cl)cc1Cl [Compound D19]",
    "measurement-target": "Chenopodium album (CHEAL), common lambsquarters",
    "measure": "pest or weed control at 560 g/ha",
    "value-unit": "%",
    "recorded-measurement": 85
  },
  {
    "compound": "O=C(COc1ccc(Cl)cc1Cl)NOC1CCCCO1 (stereo not shown) [Compound D15]",
    "measurement-target": "Chenopodium album (CHEAL), common lambsquarters",
    "measure": "pest or weed control at 560 g/ha",
    "value-unit": "%",
    "recorded-measurement": 82.5
  },
  {
    "compound": "O=C(COc1ccc(Cl)cc1Cl)NOCCc1ccccc1 [Compound D18]",
    "measurement-target": "Chenopodium album (CHEAL), common lambsquarters",
    "measure": "pest or weed control at 560 g/ha",
    "value-unit": "%",
    "recorded-measurement": 75
  },
  {
    "compound": "COc1ccc(CONC(=O)COc2ccc(Cl)cc2Cl)cc1 [Compound D20]",
    "measurement-target": "Chenopodium album (CHEAL), common lambsquarters",
    "measure": "pest or weed control at 560 g/ha",
    "value-unit": "%",
    "recorded-measurement": 82.5
  },
  {
    "compound": "CCN(CC)OC(=O)COc1ccc(Cl)cc1Cl [Compound A21]",
    "measurement-target": "Chenopodium album (CHEAL), common lambsquarters",
    "measure": "pest or weed control at 560 g/ha",
    "value-unit": "%",
    "recorded-measurement": 82.5
  },
  {
    "compound": "O=C(COc1ccc(Cl)cc1Cl)Oc1ccccn1 [Compound E11]",
    "measurement-target": "Chenopodium album (CHEAL), common lambsquarters",
    "measure": "pest or weed control at 560 g/ha",
    "value-unit": "%",
    "recorded-measurement": 80
  },
  {
    "compound": "O=C(COc1cc(Cl)cc(Cl)c1)OCCCOC(=O)COc1ccc(Cl)cc1Cl [Compound B7]",
    "measurement-target": "Chenopodium album (CHEAL), common lambsquarters",
    "measure": "pest or weed control at 560 g/ha",
    "value-unit": "%",
    "recorded-measurement": 77.5
  },
  {
    "compound": "Cc1nc2ccccc2n1C(=O)COc1ccc(Cl)cc1Cl [Compound D12]",
    "measurement-target": "Chenopodium album (CHEAL), common lambsquarters",
    "measure": "pest or weed control at 560 g/ha",
    "value-unit": "%",
    "recorded-measurement": 75
  },
  {
    "compound": "O=C(COc1ccc(Cl)cc1Cl)Nc1ccnc(Cl)c1 [Compound D13]",
    "measurement-target": "Chenopodium album (CHEAL), common lambsquarters",
    "measure": "pest or weed control at 560 g/ha",
    "value-unit": "%",
    "recorded-measurement": 75
  },
  {
    "compound": "O=C(COc1ccc(Cl)cc1Cl)Nc1cccnc1 [Compound D27]",
    "measurement-target": "Chenopodium album (CHEAL), common lambsquarters",
    "measure": "pest or weed control at 560 g/ha",
    "value-unit": "%",
    "recorded-measurement": 80
  }
]
